targetOfAssay: Active phosphorylated His6-tagged ERK2 WT (rat (p-0033 says mouse)), P63086
assayContext: modification not given; phosphorylated (active form; sites not given)
Ends that are not written are not given here.
observationType: IC50

binder	dataValue
PQKGRKPRDLELPL (not fully specified (some residues, N-terminus)) [ELK1]	35 µM
